- tested_system: Toll-like receptor 7 (Homo sapiens, UniProt Q9NYK1)
- Sequence (Q9NYK1 whole entry): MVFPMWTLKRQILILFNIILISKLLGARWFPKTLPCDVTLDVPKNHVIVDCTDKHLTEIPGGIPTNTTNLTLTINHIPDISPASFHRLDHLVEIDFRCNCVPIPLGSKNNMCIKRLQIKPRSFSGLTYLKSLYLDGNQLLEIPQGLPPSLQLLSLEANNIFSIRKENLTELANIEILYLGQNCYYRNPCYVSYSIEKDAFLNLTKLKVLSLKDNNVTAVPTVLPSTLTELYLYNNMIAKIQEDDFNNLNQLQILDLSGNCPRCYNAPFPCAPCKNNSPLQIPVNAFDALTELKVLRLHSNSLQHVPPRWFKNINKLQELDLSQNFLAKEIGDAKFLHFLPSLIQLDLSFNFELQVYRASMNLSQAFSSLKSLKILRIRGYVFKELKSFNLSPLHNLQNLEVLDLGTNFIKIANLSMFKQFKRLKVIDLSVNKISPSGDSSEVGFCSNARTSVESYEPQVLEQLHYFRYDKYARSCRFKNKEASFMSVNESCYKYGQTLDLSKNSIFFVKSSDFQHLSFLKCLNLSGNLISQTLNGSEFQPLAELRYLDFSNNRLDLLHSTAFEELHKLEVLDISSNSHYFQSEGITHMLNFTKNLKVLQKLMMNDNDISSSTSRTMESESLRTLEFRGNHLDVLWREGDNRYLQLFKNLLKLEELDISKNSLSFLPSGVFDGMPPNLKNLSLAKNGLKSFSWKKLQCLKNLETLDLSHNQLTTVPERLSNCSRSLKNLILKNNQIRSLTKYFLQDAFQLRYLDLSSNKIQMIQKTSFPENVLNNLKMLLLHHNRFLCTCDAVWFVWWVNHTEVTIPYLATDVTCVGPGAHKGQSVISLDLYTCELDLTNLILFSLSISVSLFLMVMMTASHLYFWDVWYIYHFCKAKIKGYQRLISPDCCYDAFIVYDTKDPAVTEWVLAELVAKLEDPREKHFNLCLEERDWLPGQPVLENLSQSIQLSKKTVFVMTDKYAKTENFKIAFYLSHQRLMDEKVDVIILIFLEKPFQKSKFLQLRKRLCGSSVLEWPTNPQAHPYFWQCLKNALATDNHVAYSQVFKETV
- experiment_summary: Antagonist activity at TLR7 expressed in HEK293 cells co-transfected with NF-kappaB/sAP gene assessed as inhibition of 1 ug/ml of gardiquimod-induced NF-kappaB activation by reporter gene assay
- Assay type: functional, cell-based
pIC50: −log10 of the molar value.
value_type: pIC50

Some compounds with recorded pIC50:
{"columns": ["chemical_string", "tested_system", "pIC50"],
 "data": [
  ["CCNCc1nc2c3ccccc3ncc2n1C", "Toll-like receptor 7 (Homo sapiens, UniProt Q9NYK1)", 4.52],
  ["C#CCn1c(-c2ccccc2)nc2c3ccccc3ncc21", "Toll-like receptor 7 (Homo sapiens, UniProt Q9NYK1)", 4.83],
  ["C#CCn1c(CNCC)nc2c3ccccc3ncc21", "Toll-like receptor 7 (Homo sapiens, UniProt Q9NYK1)", 4.58],
  ["Cn1c(C2CCCCC2)nc2c3ccccc3ncc21", "Toll-like receptor 7 (Homo sapiens, UniProt Q9NYK1)", 4.66],
  ["COc1ccc(Cn2c(C3CCCCC3)nc3c4ccccc4ncc32)cc1", "Toll-like receptor 7 (Homo sapiens, UniProt Q9NYK1)", 4.70],
  ["Cn1c(-c2ccccc2)nc2c3ccccc3ncc21", "Toll-like receptor 7 (Homo sapiens, UniProt Q9NYK1)", 4.66],
  ["CCNCc1nc2c3ccccc3ncc2n1Cc1ccc(OC)cc1", "Toll-like receptor 7 (Homo sapiens, UniProt Q9NYK1)", 4.55],
  ["CCCCCCCCCc1nc2c3ccccc3ncc2n1Cc1ccc(OC)cc1", "Toll-like receptor 7 (Homo sapiens, UniProt Q9NYK1)", 4.71],
  ["COc1ccc(Cn2c(-c3ccccc3)nc3c4ccccc4[n+](Cc4ccc(OC)cc4)cc32)cc1", "Toll-like receptor 7 (Homo sapiens, UniProt Q9NYK1)", 5.55],
  ["C#CCn1c(CCCCCCCCC)nc2c3ccccc3ncc21", "Toll-like receptor 7 (Homo sapiens, UniProt Q9NYK1)", 5.07]
]}

[I] C#CCn1c(C2CCCCC2)nc2c3ccccc3ncc21
[II] CCCCCCCCCc1nc2c3ccccc3ncc2n1C
Kindly identify which of I and II has the larger recorded pIC50 value. Please identify the chosen entry by its label. II
